- subject.of.test: FRMPD2_3, Q68DX3
- Sequence (Q68DX3 1073-1166): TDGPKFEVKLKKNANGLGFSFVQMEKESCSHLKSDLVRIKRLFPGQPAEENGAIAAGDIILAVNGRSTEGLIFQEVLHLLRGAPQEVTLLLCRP
- assay.text: holdup assay
- Design: key: below the threshold = too weak to quantify, mostly under pKd 3.1 to 4
- measurement.context: plain residues with an end cap or a label only (N-terminal biotin on a linker: ado-ado)
measurement.kind: pKd

Below: 5 binders and their reported pKd.
Data request: Look up and state reported pKd for SGDGKTSVWI [GJC1, P36383]
Data returned: below the threshold

Data request: Report pKd, nothing else, for this binder: DSEEELPTRL [GRK6, P43250]
Data returned: 3.53

Data request: Item MQILSKPEFI [NPSR1, Q6W5P4] : provide pKd
Data returned: below the threshold

Data request: Tell me pKd reported for RGKNRRQSIF [CDK18, Q07002]
Data returned: below the threshold

Data request: Query pKd for QLGSPTADLA [SIPA1, Q96FS4]
Data returned: below the threshold

---
Data request: Give me measured pKd, please, for this binder: KLQNPNQSVV [TYRP1, P17643]
Data returned: below the threshold

Data request: Please indicate pKd recorded for ELKAEDEVQI [DCHS2, Q6V1P9]
Data returned: below the threshold

Data request: Given the binder FHSIKQSTAV [CRHR1, P34998] , write its reported pKd.
Data returned: below the threshold

These entries and their values trace back to paper PMC9482650.
